Test system: MOLT-4
Assay: Antiproliferative activity against human MOLT4 cells after 24 hrs
Format: functional, cell-based
Conditions: MOLT-4, 24 h
quantity.kind: IC50 (µM)
Your answer should be a plain number; it is taken to be in µM.

Problem: Give IC50 (MOLT-4) of the following compound: `O=C1c2ccccc2-n2c1nc1ccccc1c2=O`
Solution: 10

----------
Tested on: Staphylococcus aureus
Assay: Antibacterial activity against methicillin resistant Staphylococcus aureus after 24 hrs by agar plate dilution method
Format: functional
Label Met when MIC < 0.3 µg/mL; otherwise Not met.

| smiles.representation | assigned.category |
| --- | --- |
| O=C1c2ccccc2-n2c1nc1ccccc1c2=O | Not met |
| O=C1c2cc(F)ccc2-n2c1nc1ccccc1c2=O | Met |
| O=C1c2ccccc2-n2c1nc1ccc(Cl)cc1c2=O | Met |
| Cc1ccc2c(c1)C(=O)c1nc3ccccc3c(=O)n1-2 | Not met |
| Nc1ccc2nc3n(c(=O)c2c1)-c1ccccc1C3=O | Not met |
| O=C1c2ccccc2-n2c1nc1ccc([N+](=O)[O-])cc1c2=O | Not met |
| COc1ccc2c(c1)C(=O)c1nc3ccccc3c(=O)n1-2 | Not met |

Lab note: next molecule to report on.
Problem: API: query returns whether the molecule falls strictly under 0.3 µg/mL in MIC. Query: `O=C1c2cc(Br)ccc2-n2c1nc1ccccc1c2=O`
Solution: Met

----------
Target: Polyunsaturated fatty acid 5-lipoxygenase (Homo sapiens)
Sequence (P09917 whole entry): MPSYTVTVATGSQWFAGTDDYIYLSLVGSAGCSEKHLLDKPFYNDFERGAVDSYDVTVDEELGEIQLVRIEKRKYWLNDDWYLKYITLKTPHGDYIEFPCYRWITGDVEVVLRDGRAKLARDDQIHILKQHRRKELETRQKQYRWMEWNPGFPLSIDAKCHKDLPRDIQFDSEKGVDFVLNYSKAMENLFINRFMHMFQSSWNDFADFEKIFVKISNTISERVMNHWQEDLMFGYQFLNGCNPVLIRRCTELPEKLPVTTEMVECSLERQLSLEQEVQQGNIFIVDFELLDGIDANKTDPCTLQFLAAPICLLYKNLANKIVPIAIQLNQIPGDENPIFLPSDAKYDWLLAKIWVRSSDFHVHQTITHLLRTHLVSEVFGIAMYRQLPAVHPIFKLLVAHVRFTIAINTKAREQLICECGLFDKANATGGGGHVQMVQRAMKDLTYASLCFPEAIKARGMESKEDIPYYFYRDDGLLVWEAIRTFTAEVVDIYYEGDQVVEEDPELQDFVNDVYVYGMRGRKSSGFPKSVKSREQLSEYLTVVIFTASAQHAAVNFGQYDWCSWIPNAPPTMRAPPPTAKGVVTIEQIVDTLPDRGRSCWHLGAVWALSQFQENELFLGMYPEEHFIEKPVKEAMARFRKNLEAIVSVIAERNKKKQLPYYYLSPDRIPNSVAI
Experiment: Inhibition of 5-LO in LPS-stimulated human neutrophils by HPLC analysis
pIC50: −log10 of the molar value.
quantity.kind: pIC50

Problem: Fill in: pIC50 of `O=C1c2ccccc2-n2c1nc1ccccc1c2=O` is ___
Solution: 6.22 to 6.70

----------
Test system: HL-60
Assay: Antiproliferative activity against human HL60 cells after 24 hrs
Type: functional, cell-based
Conditions: HL-60, 24 h
quantity.kind: IC50 (µM)
Just the number in µM, nothing appended.

Problem: What value of measured IC50 is listed for `O=C1c2ccccc2-n2c1nc1ccccc1c2=O` ?
Solution: 5

----------
Test system: Malassezia furfur
Experiment: Antifungal activity against Malassezia furfur after 2 to 4 days by agar plate dilution method
Type: functional
quantity.kind: MIC (mg/L)
Unit mg/L implied. Number only.

| compound | MIC, mg/L |
| --- | --- |
| O=C1c2ccccc2-n2c1nc1ccccc1c2=O [TRYPTANTHRIN] | 4 |
| O=C1c2ccccc2-n2c1nc1ccc(Br)cc1c2=O | 4 |
| Nc1ccc2nc3n(c(=O)c2c1)-c1ccccc1C3=O | 20 |

Problem: Return MIC measured with Malassezia furfur given this compound: `O=C1c2ccccc2-n2c1nc1ccc(Cl)cc1c2=O`
Solution: 4

Problem: Given the entry `O=C1c2cc(F)ccc2-n2c1nc1ccccc1c2=O` , what MIC was observed with Malassezia furfur?
Solution: 1

Problem: Request body: readout MIC, system Malassezia furfur, query `O=C1c2cc(Br)ccc2-n2c1nc1ccccc1c2=O` . Return the value.
Solution: 2.5

----------
Reported MIC values are given for each entry in this list.
System: Malassezia furfur
Experiment: Antifungal activity against Malassezia furfur after 2 to 4 days by agar plate dilution method
Assay type: functional

Example compounds with recorded MIC:
| smiles.representation | quantity.kind | reported |
| --- | --- | --- |
| COc1ccc2c(c1)C(=O)c1nc3ccccc3c(=O)n1-2 | MIC | > 120 µg/mL |
| O=C1c2ccccc2-n2c1nc1ccc([N+](=O)[O-])cc1c2=O | MIC | > 160 µg/mL |

Kindly review the next compound as well.
Problem: Query: MIC; subject: `Cc1ccc2c(c1)C(=O)c1nc3ccccc3c(=O)n1-2`
Solution: > 120 µg/mL
